B1: KRT13 (parent)
chain: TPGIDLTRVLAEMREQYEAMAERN

- Variants of: B1
- TEST_NAME: protein stability index of a GFP-peptide fusion (GPS, HEK-293T) (PSI 1-6); higher = more stable;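 further: lentivirally expressed fusions sorted by FACS into six bins by GFP to DsRed ratio, PSI derived from sequencing read proportions per bin multiplied by bin number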
- ASSAY_SETUP: c terminus: a fixed tail appended
# protein stability index values compiled below
Answer using only a numeral; do not append any unit.

These recorded examples may help you get a feel for the data.
[[record]]
mutation_id = "E15S"
endpoint_result = 3.61

[[record]]
mutation_id = "R14N"
endpoint_result = 4.55

[[record]]
mutation_id = "D5Q"
endpoint_result = 3.8

[[record]]
mutation_id = "P2E"
endpoint_result = 3.16

[[record]]
mutation_id = "Y17A"
endpoint_result = 5.29


Task: Look at this variant and give its reported protein stability index. M20V
Output: 3.09

Task: Further, for E15C ?
Output: 3.34

Task: Further, for A21Q ?
Output: 4.54

Task: Further, for V9D ?
Output: 4.54

Task: Further, for L6W ?
Output: 3.09

Task: Further, for Q16C ?
Output: 4.57

Task: Further, for R14P ?
Output: 4.42
